System: 855422-203-R-J1-PDC spheroids with HUVEC/MSC, viability
Assay: Anticancer human tumor 855422-203-R-J1-PDC patient-derived bladder carcinoma cell line growth inhibition [PI3K]
Details: second compound 0.01 µM; first compound 10 µM; hits give low values
Excerpt: Combinatorial screen of targeted agents with the PI3K inhibitors inavolisib, alpelisib, duvelisib, and copanlisib in multi-cell type tumor spheroids A high-throughput screen of multi-cell type tumor spheroids was designed to identify active combinations of targeted small molecules and PI3K pathway inhibitors. […] Compounds. […] If the clinical Cmax for an agent had not been determined, the highest concentration tested was 10 microM. […]
Each entry falls in a class defined on viability, T/C; the bands are low: < 8%; middle: ≥ 8% and < 70%; high: ≥ 70%

Use these answered entries as a reference point.
compound | cat
CC(C)NCC(C(=O)N1CCN(c2ncnc3c2C(C)CC3O)CC1)c1ccc(Cl)cc1 (configuration not stated) + COc1c(OCCCN2CCOCC2)ccc2c3n(c(=NC(=O)c4cnc(N)nc4)nc12)CCN3 | middle
CC1(C)CCC(CN2CCN(c3ccc(C(=O)NS(=O)(=O)c4ccc(NCC5CCOCC5)c([N+](=O)[O-])c4)c(Oc4cnc5[nH]ccc5c4)c3)CC2)=C(c2ccc(Cl)cc2)C1 + COc1c(OCCCN2CCOCC2)ccc2c3n(c(=NC(=O)c4cnc(N)nc4)nc12)CCN3 | low

(Q) Quick check: band for Cn1ncc(Cl)c1-c1cc(C(=O)NC(CN)Cc2cccc(F)c2)sc1Cl (configuration not stated) + COc1c(OCCCN2CCOCC2)ccc2c3n(c(=NC(=O)c4cnc(N)nc4)nc12)CCN3
(A) low

(Q) Quick check: band for CCCS(=O)(=O)Nc1ccc(F)c(C(=O)c2c[nH]c3ncc(-c4ccc(Cl)cc4)cc23)c1F + COc1c(OCCCN2CCOCC2)ccc2c3n(c(=NC(=O)c4cnc(N)nc4)nc12)CCN3
(A) low

(Q) Quick check: band for C#Cc1c(F)ccc2cc(O)cc(-c3ncc4c(N5CC6CCC(C5)N6)nc(OCC56CCCN5CC(F)C6)nc4c3F)c12 (configuration not stated) + CC(Nc1ccc2c(c1)OCCn1cc(N3C(=O)OCC3C(F)F)nc1-2)C(N)=O
(A) high

(Q) Quick check: band for C=CC(=O)N1CCN(c2nc(=O)n(-c3c(C)ccnc3C(C)C)c3nc(-c4c(O)cccc4F)c(F)cc23)C(C)C1 (configuration not stated) + CC(Nc1ccc2c(c1)OCCn1cc(N3C(=O)OCC3C(F)F)nc1-2)C(N)=O
(A) high

(Q) Quick check: band for Cn1nccc1Nc1nccc(-c2ccn(C(CO)c3ccc(Cl)c(F)c3)c(=O)c2)n1 (configuration not stated) + COc1c(OCCCN2CCOCC2)ccc2c3n(c(=NC(=O)c4cnc(N)nc4)nc12)CCN3
(A) middle

(Q) Quick check: band for CNC(=O)c1ccc(N2C(=S)N(c3ccc(C#N)c(C(F)(F)F)c3)C(=O)C2(C)C)cc1F + CC(Nc1ccc2c(c1)OCCn1cc(N3C(=O)OCC3C(F)F)nc1-2)C(N)=O
(A) high

(Q) Quick check: band for CCCS(=O)(=O)Nc1ccc(F)c(C(=O)c2c[nH]c3ncc(-c4ccc(Cl)cc4)cc23)c1F + CC(Nc1ccc2c(c1)OCCn1cc(N3C(=O)OCC3C(F)F)nc1-2)C(N)=O
(A) low

(Q) Quick check: band for CC(C)NCC(C(=O)N1CCN(c2ncnc3c2C(C)CC3O)CC1)c1ccc(Cl)cc1 (configuration not stated) + CC(Nc1ccc2c(c1)OCCn1cc(N3C(=O)OCC3C(F)F)nc1-2)C(N)=O
(A) middle

(Q) Quick check: band for CC1(C)CCC(Nc2ncc(C(F)(F)F)c(-c3c[nH]c4c(P(C)(C)=O)c(C#N)ccc34)n2)CN1 (configuration not stated) + CC(Nc1ccc2c(c1)OCCn1cc(N3C(=O)OCC3C(F)F)nc1-2)C(N)=O
(A) low

---

System: 855422-203-R-J1-PDC spheroids with HUVEC/MSC, viability
Experiment: Anticancer human tumor 855422-203-R-J1-PDC cell line growth inhibition [PI3K]; active = viability on the fitted dose curve at most 10% of control; inactive = the rest;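 further: agents incubated with spheroids for one week before read-out; 100% = DMSO vehicle-treated control wells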
Conditions: second compound 0.316 µM; first compound 1 µM
One label from this list, please: active, inactive

Use these answered entries as a reference point.
molecule | cat
Cn1ncc(Cl)c1-c1cc(C(=O)NC(CN)Cc2cccc(F)c2)sc1Cl (stereo not given) + COc1c(OCCCN2CCOCC2)ccc2c3n(c(=NC(=O)c4cnc(N)nc4)nc12)CCN3 | active
CC(C)NCC(C(=O)N1CCN(c2ncnc3c2C(C)CC3O)CC1)c1ccc(Cl)cc1 (stereo not given) + CC(Nc1ccc2c(c1)OCCn1cc(N3C(=O)OCC3C(F)F)nc1-2)C(N)=O | inactive
CC(Cn1ccc(-c2ccc(C#N)c(Cl)c2)n1)NC(=O)c1cc(C(C)O)[nH]n1 (stereo not given) + Cc1nc(NC(=O)N2CCCC2C(N)=O)sc1-c1ccnc(C(C)(C)C(F)(F)F)c1 | inactive
CC1(C)CCC(CN2CCN(c3ccc(C(=O)NS(=O)(=O)c4ccc(NCC5CCOCC5)c([N+](=O)[O-])c4)c(Oc4cnc5[nH]ccc5c4)c3)CC2)=C(c2ccc(Cl)cc2)C1 + CC(Nc1ccc2c(c1)OCCn1cc(N3C(=O)OCC3C(F)F)nc1-2)C(N)=O | inactive

(Q) Please share the test call associated with CC(Cn1ccc(-c2ccc(C#N)c(Cl)c2)n1)NC(=O)c1cc(C(C)O)[nH]n1 (stereo not given) + CC(Nc1ncnc2nc[nH]c12)c1cc2cccc(Cl)c2c(=O)n1-c1ccccc1 .
(A) inactive

---

Test system: 855422-203-R-J1-PDC spheroids with HUVEC/MSC, viability
Assay: Anticancer human tumor 855422-203-R-J1-PDC cell line growth inhibition [PI3K];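 further: agents incubated with spheroids for one week before read-out; 100% = DMSO vehicle-treated control wells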
Conditions: second compound 0.0316 µM; first compound 0.03 µM; hits give low values
readout.label: viability, T/C (%)
State just the number; it will be interpreted in %.

Please review the following examples before continuing.
molecule | test.target | result.unit | viability, T/C
Cn1cnc2c(F)c(Nc3ccc(Br)cc3Cl)c(C(=O)NOCCO)cc21 + COc1c(OCCCN2CCOCC2)ccc2c3n(c(=NC(=O)c4cnc(N)nc4)nc12)CCN3 | 855422-203-R-J1-PDC spheroids with HUVEC/MSC, viability | % | 64
Cn1cnc2c(F)c(Nc3ccc(Br)cc3Cl)c(C(=O)NOCCO)cc21 + Cc1nc(NC(=O)N2CCCC2C(N)=O)sc1-c1ccnc(C(C)(C)C(F)(F)F)c1 | 855422-203-R-J1-PDC spheroids with HUVEC/MSC, viability | % | 79.5
Cn1cnc2c(F)c(Nc3ccc(Br)cc3Cl)c(C(=O)NOCCO)cc21 + CC(Nc1ncnc2nc[nH]c12)c1cc2cccc(Cl)c2c(=O)n1-c1ccccc1 | 855422-203-R-J1-PDC spheroids with HUVEC/MSC, viability | % | 90.7

Consider now this further molecule.
(Q) Looking for the measured viability, T/C of Cn1cnc2c(F)c(Nc3ccc(Br)cc3Cl)c(C(=O)NOCCO)cc21 + CC(Nc1ccc2c(c1)OCCn1cc(N3C(=O)OCC3C(F)F)nc1-2)C(N)=O , can you help?
(A) 83.4

---

System: 855422-203-R-J1-PDC spheroids with HUVEC/MSC, viability
Test: Anticancer human tumor 855422-203-R-J1-PDC cell line growth inhibition [PI3K];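 further: agents incubated with spheroids for one week before read-out; 100% = DMSO vehicle-treated control wells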
Conditions: second compound 0.316 µM; first compound 0.316 µM; hits give low values
Output yes (1) for records whose viability, T/C is lower than 50%, no (0) for records at or above 50%.

Use these answered entries as a reference point.
compound | cat
CC1(C)CCC(CN2CCN(c3ccc(C(=O)NS(=O)(=O)c4ccc(NCC5CCOCC5)c([N+](=O)[O-])c4)c(Oc4cnc5[nH]ccc5c4)c3)CC2)=C(c2ccc(Cl)cc2)C1 + CC(Nc1ncnc2nc[nH]c12)c1cc2cccc(Cl)c2c(=O)n1-c1ccccc1 | no (0)
C#Cc1c(F)ccc2cc(O)cc(-c3ncc4c(N5CC6CCC(C5)N6)nc(OCC56CCCN5CC(F)C6)nc4c3F)c12 (stereo unspecified) + Cc1nc(NC(=O)N2CCCC2C(N)=O)sc1-c1ccnc(C(C)(C)C(F)(F)F)c1 | no (0)
CCN1CCN(Cc2ccc(Nc3ncc(F)c(-c4cc(F)c5nc(C)n(C(C)C)c5c4)n3)nc2)CC1 + CC(Nc1ccc2c(c1)OCCn1cc(N3C(=O)OCC3C(F)F)nc1-2)C(N)=O | yes (1)

(Q) Record CC(Cn1ccc(-c2ccc(C#N)c(Cl)c2)n1)NC(=O)c1cc(C(C)O)[nH]n1 (stereo unspecified) + COc1c(OCCCN2CCOCC2)ccc2c3n(c(=NC(=O)c4cnc(N)nc4)nc12)CCN3 : is its viability, T/C strictly below 50%?
(A) yes (1)

(Q) Record Cn1ncc(Cl)c1-c1cc(C(=O)NC(CN)Cc2cccc(F)c2)sc1Cl (stereo unspecified) + COc1c(OCCCN2CCOCC2)ccc2c3n(c(=NC(=O)c4cnc(N)nc4)nc12)CCN3 : is its viability, T/C strictly below 50%?
(A) yes (1)
